Data credit: PubChem BioAssay (NCATS)

- experiment_summary: Counterscreen qHTS for small molecule stabilizers of the endoplasmic reticulum resident proteome: GLuc-NoTag assay (AID 1508627)
- condition_info: Gaussia luciferase NoTag secretion counterscreen, luminescence, thapsigargin 100 nM for final 4 h; series mostly up to 76.4 µM
Inconclusive results are not listed. Calls of active or inactive are those of the source. Calls come from the whole dose curve; as a rule, active = well fitted inhibition curve with a large enough effect; inconclusive = small, poorly fitted or top-dose-only effect; inactive = no such curve, though single readings can be large or run the other way.
The reply should be one of these categories: 1 for active, -1 for inactive

[[record]]
molecule = "Cc1cc2nc3c(=O)[nH]c(=O)nc-3n(CC(O)C(O)C(O)CO)c2cc1C (stereo unspecified)"
class_assignment = -1

[[record]]
molecule = "O=C(CCCN1CCN(c2ccc(F)cc2)CC1)NC1c2ccccc2CSc2ccccc21 (stereo unspecified)"
class_assignment = 1

[[record]]
molecule = "NS(=O)(=O)c1cc(Cl)c(Cl)c(S(N)(=O)=O)c1"
class_assignment = -1


[Q] Returns: the outcome recorded for O[C@@H](COc1cccc2ncccc12)CN1CCN(C2c3ccccc3[C@@H]3[C@H](c4ccccc42)C3(F)F)CC1 (stereo partly specified) in this assay.
[A] -1

[Q] Returns: the outcome recorded for CC(C)=CCCC(C)=CCCC(C)=CCCC(C)=CCCC(C)=CCCC(C)=CCCC(C)=CCCC(C)=CCCC(C)=CCO in this assay.
[A] -1

[Q] Returns: the outcome recorded for CN1CCC[C@H]1CCO[C@](C)(c1ccccc1)c1ccc(Cl)cc1 in this assay.
[A] -1
